tested on: HCoV-229E; design: species or system Huh-7; HTS, protection from HCoV-229E induced cell death, luminescent cell viability (CellCounting-Lite 2.0), inhibition rate; settings: 24 h post infection, 1 h compound pre-incubation; 10 µM; inhibitor
Screen size: about 3,300 compounds; about 95 (3%) showed an effect of 50% or more. The full list was thinned out, with strong results kept by preference.

[
  {
    "Molecule": "CCC1(c2ccc(O)cc2)NC(=O)N(C)C1=O (centres unmarked) [4-Hydroxymephenytoin]",
    "229E Inhibition rate": "55.5%"
  },
  {
    "Molecule": "CC[C@H]1C[C@@H]2CN3CCc4c([nH]c5ccccc45)[C@](C(=O)OC)(C2)[C@H]13",
    "229E Inhibition rate": "41.8%"
  },
  {
    "Molecule": "OC[C@H]1O[C@@](CO)(OC[C@@]2(O[C@H]3O[C@H](CO)[C@@H](O)[C@H](O)[C@H]3O)O[C@H](CO)[C@@H](O)[C@@H]2O)[C@@H](O)[C@@H]1O",
    "229E Inhibition rate": "18.6%"
  },
  {
    "Molecule": "O=C1c2c(O)cc(O)cc2O[C@H](c2ccc(O)cc2)[C@H]1O [Dihydrokaempferol]",
    "229E Inhibition rate": "9.9%"
  },
  {
    "Molecule": "COc1cc2c(c(OC)c1OC)-c1c(cc(OC)c(OC)c1OC)C[C@H](C)[C@H](C)C2",
    "229E Inhibition rate": "35.1%"
  },
  {
    "Molecule": "O=C(O)C1CCCCN1O (centres unmarked) [N-Hydroxypipecolic acid]",
    "229E Inhibition rate": "19%"
  },
  {
    "Molecule": "CCc1ccc(O)cc1",
    "229E Inhibition rate": "20.1%"
  },
  {
    "Molecule": "CC1NC(=O)CNC1=O (centres unmarked)",
    "229E Inhibition rate": "39.9%"
  }
]

* * *

test system: HCoV-229E; set-up: species or system Huh-7; HTS, protection from HCoV-229E induced cell death, luminescent cell viability (CellCounting-Lite 2.0), inhibition rate; details: 24 h post infection, 1 h compound pre-incubation; 10 µM; inhibitor
In all, about 3,300 compounds went through this assay and about 95 (3%) showed an effect of 50% or more. For the sample, strong results were picked, then their nearest neighbours and some compounds at random.
// values below are reported 229E Inhibition rate

[
  {
    "Molecule": "O=C1NCN(c2ccccc2)C12CCN(CCCOc1ccc(F)cc1)CC2 [Spiramide]",
    "Study target": "HCoV-229E",
    "229E Inhibition rate": "51.4%"
  },
  {
    "Molecule": "CC1=COC(=O)[C@H]2[C@@H]1CC[C@@H]2C",
    "Study target": "HCoV-229E",
    "229E Inhibition rate": "8.3%"
  },
  {
    "Molecule": "C[C@@]1(C(=O)O)CC[C@]2(C)CC[C@]3(C)C4=CC(=O)c5c(cc(O)c(O)c5C=O)[C@]4(C)CC[C@@]3(C)[C@@H]2C1",
    "Study target": "HCoV-229E",
    "229E Inhibition rate": "6.3%"
  },
  {
    "Molecule": "COc1cc(C2Oc3cc([C@H]4Oc5cc(O)cc(O)c5C(=O)[C@@H]4O)ccc3OC2CO)ccc1O (stereo partly shown)",
    "Study target": "HCoV-229E",
    "229E Inhibition rate": "13%"
  }
]
